# MEASURED ON: GPIIb/IIIa (Homo sapiens, UniProt P05106+P08514)
# Sequence (P08514 32-887 limits assumed): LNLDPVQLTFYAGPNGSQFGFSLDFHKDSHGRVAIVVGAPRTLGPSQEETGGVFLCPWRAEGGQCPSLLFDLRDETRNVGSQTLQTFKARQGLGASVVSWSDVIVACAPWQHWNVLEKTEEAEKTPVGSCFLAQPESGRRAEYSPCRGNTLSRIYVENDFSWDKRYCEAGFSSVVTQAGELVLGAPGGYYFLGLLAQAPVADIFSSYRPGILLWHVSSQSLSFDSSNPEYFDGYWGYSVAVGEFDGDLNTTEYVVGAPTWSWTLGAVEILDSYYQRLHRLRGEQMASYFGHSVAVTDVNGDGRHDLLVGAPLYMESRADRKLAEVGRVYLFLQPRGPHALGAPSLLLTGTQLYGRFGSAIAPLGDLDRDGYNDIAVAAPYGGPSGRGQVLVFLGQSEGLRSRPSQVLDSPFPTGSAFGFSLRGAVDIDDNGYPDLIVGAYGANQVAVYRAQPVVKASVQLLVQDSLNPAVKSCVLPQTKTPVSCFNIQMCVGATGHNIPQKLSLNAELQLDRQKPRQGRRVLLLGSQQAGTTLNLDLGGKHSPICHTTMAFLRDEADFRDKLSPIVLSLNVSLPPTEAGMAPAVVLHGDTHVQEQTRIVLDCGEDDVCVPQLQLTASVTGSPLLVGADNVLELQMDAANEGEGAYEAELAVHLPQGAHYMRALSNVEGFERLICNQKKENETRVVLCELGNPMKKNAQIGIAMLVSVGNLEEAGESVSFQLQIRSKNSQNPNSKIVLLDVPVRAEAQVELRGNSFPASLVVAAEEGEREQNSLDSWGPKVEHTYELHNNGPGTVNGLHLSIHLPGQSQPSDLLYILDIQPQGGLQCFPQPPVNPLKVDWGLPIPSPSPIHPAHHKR
# Sequence (P08514 891-1039 partner limits assumed): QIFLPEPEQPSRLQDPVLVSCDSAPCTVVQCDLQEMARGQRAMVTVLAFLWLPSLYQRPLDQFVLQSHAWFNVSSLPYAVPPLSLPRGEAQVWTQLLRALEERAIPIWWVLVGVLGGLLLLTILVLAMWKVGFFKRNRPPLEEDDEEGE
# Sequence (P05106 27-788): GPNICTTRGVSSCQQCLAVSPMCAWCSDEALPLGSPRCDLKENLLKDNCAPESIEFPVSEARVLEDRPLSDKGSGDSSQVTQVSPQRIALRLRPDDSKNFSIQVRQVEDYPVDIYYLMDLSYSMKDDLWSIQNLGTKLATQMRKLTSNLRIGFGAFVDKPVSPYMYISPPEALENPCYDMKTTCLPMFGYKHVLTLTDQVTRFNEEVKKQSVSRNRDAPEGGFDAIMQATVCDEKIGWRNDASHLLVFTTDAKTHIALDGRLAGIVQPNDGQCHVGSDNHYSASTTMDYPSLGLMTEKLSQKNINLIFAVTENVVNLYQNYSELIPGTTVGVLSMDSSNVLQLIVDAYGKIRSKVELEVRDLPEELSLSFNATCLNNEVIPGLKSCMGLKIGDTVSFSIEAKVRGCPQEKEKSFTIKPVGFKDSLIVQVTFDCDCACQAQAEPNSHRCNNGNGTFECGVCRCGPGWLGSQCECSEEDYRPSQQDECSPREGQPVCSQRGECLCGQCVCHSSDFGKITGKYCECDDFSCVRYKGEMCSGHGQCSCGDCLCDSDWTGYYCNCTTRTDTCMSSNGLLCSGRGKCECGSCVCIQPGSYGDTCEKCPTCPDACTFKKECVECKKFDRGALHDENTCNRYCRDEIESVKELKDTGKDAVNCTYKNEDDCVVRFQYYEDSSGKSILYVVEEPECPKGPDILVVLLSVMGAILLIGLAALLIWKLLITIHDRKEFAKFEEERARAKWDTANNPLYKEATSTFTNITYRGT
# METHOD: In vitro solid phase purified glycoprotein IIb/IIIa binding assay (biotinylated fibrinogen binding)
# REPORTED CONDITIONS: read-out: Fibrinogen Binding % Inh. (50 µM)
OBSERVATION TYPE: inhibition at 50 µM (%)
Reply numerically in %, unit not repeated.

Recorded inhibition at 50 µM, per entry:
[[record]]
compound = "O=C(O)C[C@H](NC(=O)[C@@H]1CCCN(C(=O)N2CCC(C3CCNCC3)CC2)C1)c1cccnc1"
measured_on = "GPIIb/IIIa (Homo sapiens, UniProt P05106+P08514)"
observation_type = "inhibition at 50 µM"
observed = 100

[[record]]
compound = "COc1cc(NC(=O)N[C@@H](CNC(=O)[C@@H]2CCCN(C(=O)CCC3CCNCC3)C2)C(=O)O)cc(OC)c1"
measured_on = "GPIIb/IIIa (Homo sapiens, UniProt P05106+P08514)"
observation_type = "inhibition at 50 µM"
observed = 100

[[record]]
compound = "CN1CCC(CCC(=O)N2CCCC(C(=O)NCCC(=O)O)C2)CC1 (centres unmarked)"
measured_on = "GPIIb/IIIa (Homo sapiens, UniProt P05106+P08514)"
observation_type = "inhibition at 50 µM"
observed = 100

[[record]]
compound = "O=C(O)C[C@H](NC(=O)[C@@H]1CCCN(C(=O)CCC2CCNCC2)C1)c1cccnc1"
measured_on = "GPIIb/IIIa (Homo sapiens, UniProt P05106+P08514)"
observation_type = "inhibition at 50 µM"
observed = 100

[[record]]
compound = "O=C(O)C1CN(C(=O)C2CCCN(C(=O)CCC3CCNCC3)C2)CCC1=O (centres unmarked)"
measured_on = "GPIIb/IIIa (Homo sapiens, UniProt P05106+P08514)"
observation_type = "inhibition at 50 µM"
observed = 93


Param item = CN1CCN(CCC(=O)N2CCCC(C(=O)NC(CC(=O)O)c3cnc4ccccc4c3)C2)CC1 (centres unmarked) ; retrieve measured inhibition at 50 µM. 100

Another compound to look at: CN1CCN(CCC(=O)N2CCCC(C(=O)NC(CC(=O)O)c3ccc4c(c3)OCO4)C2)CC1 (centres unmarked) 99

Another compound to look at: Cc1ccc([C@H](CC(=O)O)NC(=O)[C@@H]2CCCN(C(=O)CCC3CCNCC3)C2)cn1 100
